Values compiled from the supplement of paper PMC10567573.

B1: RSPH3 (parent)
chain: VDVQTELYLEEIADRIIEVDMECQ

Variants of: B1
Assay: protein stability index of a GFP-peptide fusion (GPS, HEK-293T) (PSI 1-6); higher = more stable;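 further: lentivirally expressed fusions sorted by FACS into six bins by GFP to DsRed ratio, PSI derived from sequencing read proportions per bin multiplied by bin number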
Conditions: c terminus: a fixed tail appended
Rule: protein stability index under 3 gives n, otherwise y.

Field: example entries. Status: answers known.
mutation-annotation: R15K
class: y
--
mutation-annotation: Q24R
class: n
--
mutation-annotation: Y8G
class: y
--
mutation-annotation: M21V
class: n
--
mutation-annotation: I17Y
class: n
--
mutation-annotation: E10R
class: n
--
mutation-annotation: E11N
class: y
--
mutation-annotation: D20S
class: n
--
mutation-annotation: M21T
class: y
--
mutation-annotation: L7A
class: y

Check this variant for protein stability index at or above 3: "D2N"
n

Check this variant for protein stability index at or above 3: "L9G"
y

Check this variant for protein stability index at or above 3: "L9M"
y

Check this variant for protein stability index at or above 3: "E10Q"
n

Check this variant for protein stability index at or above 3: "E10H"
n

Check this variant for protein stability index at or above 3: "Y8E"
y

Check this variant for protein stability index at or above 3: "I17D"
y
